- assayTarget: T1, Cynomolgus monkey CD98 ECD with C-terminal His-tag (cynomolgus monkey, UniProt P08195 105-529 (human entry))
- T1 construct: also called cyCD98 ECD; recombinant cynomolgus monkey CD98 extracellular domain
- T1 chain: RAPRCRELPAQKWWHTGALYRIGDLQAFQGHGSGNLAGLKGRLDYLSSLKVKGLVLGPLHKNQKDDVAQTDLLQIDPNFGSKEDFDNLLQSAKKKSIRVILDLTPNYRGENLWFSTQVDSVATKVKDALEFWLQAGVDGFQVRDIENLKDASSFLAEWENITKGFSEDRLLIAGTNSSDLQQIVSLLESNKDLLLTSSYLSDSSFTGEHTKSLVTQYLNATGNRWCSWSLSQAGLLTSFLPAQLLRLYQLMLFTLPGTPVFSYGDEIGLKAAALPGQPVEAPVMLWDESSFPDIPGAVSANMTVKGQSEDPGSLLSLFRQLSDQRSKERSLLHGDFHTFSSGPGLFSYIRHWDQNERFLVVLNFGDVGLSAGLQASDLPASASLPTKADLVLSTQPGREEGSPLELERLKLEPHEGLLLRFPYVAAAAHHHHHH
- assayName: SPR Biacore, anti-Fc capture of mAb, CD98 ECD analyte
Listed here: items and their measured koff.
measuredParameter: koff (s⁻¹)

binder | measuredParameter | measured
Recombinant anti-CD98 chimeric antibody chAb11 (antibody, human IgG1, V domains shown) VH: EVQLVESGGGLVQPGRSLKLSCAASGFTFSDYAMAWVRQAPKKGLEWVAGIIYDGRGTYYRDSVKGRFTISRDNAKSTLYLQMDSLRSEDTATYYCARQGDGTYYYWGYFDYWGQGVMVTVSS VL: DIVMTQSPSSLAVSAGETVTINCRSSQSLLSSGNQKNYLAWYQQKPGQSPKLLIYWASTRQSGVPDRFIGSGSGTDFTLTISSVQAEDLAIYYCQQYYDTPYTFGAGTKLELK | koff | 0.002
Recombinant anti-CD98 chimeric antibody chAb14 (antibody, human IgG1, V domains shown) VH: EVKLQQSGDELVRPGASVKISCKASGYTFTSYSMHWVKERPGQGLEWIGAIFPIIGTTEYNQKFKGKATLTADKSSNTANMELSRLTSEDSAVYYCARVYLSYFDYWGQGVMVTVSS VL: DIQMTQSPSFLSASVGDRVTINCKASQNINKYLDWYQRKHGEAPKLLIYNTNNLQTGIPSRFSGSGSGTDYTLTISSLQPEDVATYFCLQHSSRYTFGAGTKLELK | koff | 0.0014
Recombinant anti-CD98 chimeric antibody chAb15 (antibody, human IgG1, V domains shown) VH: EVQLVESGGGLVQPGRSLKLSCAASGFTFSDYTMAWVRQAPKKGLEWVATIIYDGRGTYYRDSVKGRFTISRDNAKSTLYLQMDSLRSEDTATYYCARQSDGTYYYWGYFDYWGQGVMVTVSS VL: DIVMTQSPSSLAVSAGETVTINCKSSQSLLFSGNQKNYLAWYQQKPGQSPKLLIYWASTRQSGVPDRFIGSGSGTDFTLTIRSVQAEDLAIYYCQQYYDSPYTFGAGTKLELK | koff | 7.4e-05
